assay system: T1, CXCL12WT (wild type CXCL12) (Homo sapiens (Human), UniProt P48061 22-89)
T1 construct: Recombinant, expressed and purified as previously described; [U-15N]-labelled in the NMR titrations; In monomer-dimer equilibrium; also called stromal cell-derived factor-1; SDF-1
T1 sequence (P48061 22-89 limits assumed): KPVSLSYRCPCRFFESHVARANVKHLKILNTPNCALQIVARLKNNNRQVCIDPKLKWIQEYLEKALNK
assay explanation: ΔG = -RT ln Kd at 298 K from the NMR titration
Non-standard residues stand in square brackets, D forms with d. sY = N[C@@H](Cc1ccc(OS(=O)(=O)O)cc1)C(=O)O
Consider the following binders; for each one, report its ΔG.
Output spec: scalar in kJ/mol, unitless text.

Ac-SGD[sY]DSM-NH2 (SMILES CSCC[C@H](NC(=O)[C@H](CO)NC(=O)[C@H](CC(=O)O)NC(=O)[C@H](Cc1ccc(OS(=O)(=O)O)cc1)NC(=O)[C@H](CC(=O)O)NC(=O)CNC(=O)[C@H](CO)NC(C)=O)C(N)=O, Synthetic CXCR4 heptapeptide, residues 18-24; also called sulfated Tyr21 peptide) [18SGDsYDSM24 (sTyr21 sulfopeptide)] has a reported ΔG of -15.6

Ac-SDN[sY]TEE-NH2 (SMILES CC(=O)N[C@@H](CO)C(=O)N[C@@H](CC(=O)O)C(=O)N[C@@H](CC(N)=O)C(=O)N[C@@H](Cc1ccc(OS(=O)(=O)O)cc1)C(=O)N[C@H](C(=O)N[C@@H](CCC(=O)O)C(=O)N[C@@H](CCC(=O)O)C(N)=O)[C@@H](C)O, Synthetic CXCR4 heptapeptide, residues 9-15) [9SDNsYTEE15 (sTyr12 sulfopeptide)] has a reported ΔG of -17.1

Ac-ISI[sY]TSD-NH2 (SMILES CC[C@H](C)[C@H](NC(C)=O)C(=O)N[C@@H](CO)C(=O)N[C@H](C(=O)N[C@@H](Cc1ccc(OS(=O)(=O)O)cc1)C(=O)N[C@H](C(=O)N[C@@H](CO)C(=O)N[C@@H](CC(=O)O)C(N)=O)[C@@H](C)O)[C@@H](C)CC, Synthetic CXCR4 heptapeptide, residues 4-10) [4ISIsYTSD10 (sTyr7 sulfopeptide)] has a reported ΔG of -13.5

Ac-SDNYTEE-NH2 (Synthetic CXCR4 heptapeptide, residues 9-15; also called unsulfated Tyr12 peptide) [9SDNYTEE15 (Tyr12 peptide)] has a reported ΔG of -15.3

Ac-ISIYTSD-NH2 (Synthetic CXCR4 heptapeptide, residues 4-10; also called CXCR4 Ile4-Asp10 heptapeptide) [4ISIYTSD10 (unsulfated Tyr7 peptide)] has a reported ΔG of -15.5

Ac-SGDYDSM-NH2 (Synthetic CXCR4 heptapeptide, residues 18-24; also called unsulfated Tyr21 peptide) [18SGDYDSM24 (Tyr21 peptide)] has a reported ΔG of -14.6
